# Test system: HepG2 cells
# assay_notes: HepG2 cytotoxicity counter-screen
# condition_notes: cytotoxic activity against HepG2 cells
Exam item: assign True to entries whose Tox50 is below 5 µM and False to entries at or above 5 µM. Note that a value of exactly 5 µM receives False.

# structure_smiles, class_label
measured = [
    ("C[C@H](Cc1ccc(Oc2ccc(C[C@@H](C)NC[C@H](O)c3cccc(Cl)c3)cc2)cc1)NC[C@H](O)c1cccc(Cl)c1.Cl", "True"),
    ("COc1ccc(N2CCN(CCCCNCc3ccc(NC(=O)c4cc(Cl)cc(Cl)c4)cc3)CC2)c(OC)c1", "False"),
    ("CN(C)CCCn1c(N)c(-c2nc3ccccc3[nH]2)c2nc(C#N)c(C#N)nc21", "False"),
    ("CN1CCC(N2CCN(Cc3cccc(-c4ccc(-c5nc6cc(C(F)(F)F)ccc6[nH]5)cc4)c3)CC2)CC1.O=C(O)C(F)(F)F", "False"),
    ("O=c1c(Br)ccccc1Br", "False"),
    ("CN(C)CCCOc1ccc(CN2CCC(c3c[nH]c4ccc(NCC5CCCCC5)cc34)CC2)cc1.O=C(O)C(F)(F)F", "False"),
    ("CN1CCN(c2ccc(Nc3c4ccccc4nc4ccccc34)cc2)CC1", "False"),
    ("COc1cc2nc(NCCCN3CCCCC3)nc(NCc3ccccc3)c2cc1OC", "False"),
    ("CCN(CC)CCN(Cc1ccc(-c2ccc(C(F)(F)F)cc2)cc1)C(=O)Cn1cc(Cc2cnn(C)c2)c(=O)nc1/C=C/c1cccc(F)c1F.O=C(O)C(O)C(O)C(=O)O", "False"),
    ("COc1ccc(CCNCCCCNCCc2ccc(OC)c3ccccc23)c2ccccc12.CS(=O)(=O)O", "True"),
    ("COc1ccc(CCNCCCCCCNCCc2ccc(Cl)c3ccccc23)cc1OC.Cl", "True"),
]

---

# Tested on: P. falciparum female gametocytes
# assay_notes: P. falciparum Dual Gamete Formation Assay (PfDGFA), female readout (Pfs25-positive female gametes)
# Assay type: cell-based, Plasmodium falciparum NF54
# condition_notes: Plasmodium falciparum; PfDGFA at 2µM, 24h preincubation with gametocytes; replicate R3; read-out: % inhibition female (individual replicates) R3
# Experimental: […] The Pf DGFA was performed as described in Delves et al. 2016 [17]. […] Exflagellation was recorded by capturing 10 frames over 1 s under brightfield illumination using a x4 objective with a 1.5x zoom (effectively x6) attached to an automated Nikon Ti fluorescence microscope. […] The plates were then returned to the microscope and female gametes imaged at x6 using fluorescence microscopy. […]
readout: inhibition at 2 µM

# structure_smiles, recorded_measurement
records = [
    ("O=C(NC1CCN(Cc2ccccc2)CC1)c1cc(C(=O)NC2CCN(Cc3ccccc3)CC2)cc(C(=O)NC2CCN(Cc3ccccc3)CC2)c1", "22.2%"),
    ("CN1CCC(NCc2ccc(-c3cnc(NCc4ccccc4)nc3)cc2)CC1.O=C(O)C(F)(F)F", "-0.09%"),
    ("COc1cc2c(cc1S(=O)(=O)c1ccc(COc3ccc(C(F)(F)F)cc3)cc1)CNCC2.Cl", "-0.43%"),
]

---

# Test system: P. falciparum female gametocytes
# assay_notes: P. falciparum Dual Gamete Formation Assay (PfDGFA), female readout (Pfs25-positive female gametes)
# Type: cell-based, Plasmodium falciparum NF54

# compound, subject_of_test, Cytotox ratio Pf Female
records = [
    ("FC(F)(F)c1cccc(NC(=S)NN=Cc2ccccn2)c1 [TC06]", "P. falciparum female gametocytes", 142.9),
    ("CNC(=O)c1ccccc1Nc1nc(Nc2ccc(N3CCN(C)CC3)nc2)ncc1C.Cl [TC11]", "P. falciparum female gametocytes", 0.344),
    ("CN(C)CCCn1c(N)c(-c2nc3ccccc3[nH]2)c2nc(C#N)c(C#N)nc21 [TC72]", "P. falciparum female gametocytes", 5.1),
    ("FC(F)(F)c1ccc2[nH]c(-c3ccc(-c4ccc(CNCCN5CCNCC5)cc4)cc3)nc2c1.O=C(O)C(F)(F)F [TC40]", "P. falciparum female gametocytes", 2.5),
    ("CC(C)(C)c1ccc(-c2nc3c(ccc4nc(N)nc(N)c43)[nH]2)cc1.Cl [TC05]", "P. falciparum female gametocytes", 3.2),
]
